System: Vero E6 infected with SARS-CoV-2
protocol_description: morphology score (similarity to uninfected cells); higher = more like uninfected cells
condition_set: 24 h
Use 0.08 as the dividing line for morphology score, with the line itself on the True side and lower values as False.

Reference set, count: 5
{"compound": "CCOC(=O)[C@@H](N)CCC(=O)N[C@@H](CSCc1ccccc1)C(=O)N[C@@H](C(=O)OCC)c1ccccc1 [ezatiostat] (10 µM)", "test_system": "Vero E6 infected with SARS-CoV-2", "group": "True"}
{"compound": "COc1cc(OC)c(C(=O)CCCCN2CCC3(CC2)NC(=O)NC3=O)cc1NS(=O)(=O)c1ccc(C(F)(F)F)cc1 (10 µM)", "test_system": "Vero E6 infected with SARS-CoV-2", "group": "True"}
{"compound": "Cc1cccc(Cc2c[nH]cn2)c1C [detomidine] (10 µM)", "test_system": "Vero E6 infected with SARS-CoV-2", "group": "False"}
{"compound": "Cc1ccc(NC2=NCCN2)c(Cl)c1 [tolonidine] (10 µM)", "test_system": "Vero E6 infected with SARS-CoV-2", "group": "False"}
{"compound": "CC(COc1ccccc1)NC(C)C(O)c1ccc(O)cc1 (stereo not given) [isoxsuprine] (10 µM)", "test_system": "Vero E6 infected with SARS-CoV-2", "group": "False"}

Q: Check if morphology score >= 0.08 (inclusive). Item: C[C@H](CCC(=O)NCCS(=O)(=O)O)[C@H]1CC[C@H]2[C@@H]3[C@@H](O)C[C@@H]4C[C@H](O)CC[C@]4(C)[C@H]3CC[C@]12C [ursodeoxycholyltaurine] (10 µM)
A: True

Q: Similarly, O=C(CNC(=O)c1ccc(Cl)cc1)NO [benurestat] (10 µM) ?
A: True

Q: Try this compound too: O=C(Nc1ccccc1)Nc1ccc(-c2ccc(C(=O)[C@@H]3CCC[C@@H]3C(=O)O)cc2)cc1 (10 µM)
A: True

Q: Likewise for CC(OC(=O)OC1CCCCC1)OC(=O)C1=C(CSc2nnnn2CCN(C)C)CS[C@@H]2[C@H](NC(=O)Cc3csc(N)n3)C(=O)N12 (stereo not given in full) [cefotiam-cilexetil] (10 µM) ?
A: False

Q: Now consider C[C@H](NC(=O)[C@@H](O)c1cc(F)cc(F)c1)C(=O)N[C@@H]1C(=O)N(C)c2ccccc2-c2ccccc21 (10 µM) and answer again.
A: True

Q: // next record CC(=O)SC[C@@H](Cc1ccccc1)C(=O)NCC(=O)OCc1ccccc1 (racemic) [racecadotril] (10 µM)
A: False
